# maps each entry to its RP-LC retention time
- Test Summary: gradient 5% acetonitrile 3 min, to 50% in 2 min, to 85% in 15 min, held 3 min, 100 µL/min
- Assay Conditions: column: Zorbax Extend-C18 2.1 x 50 mm; eluents: water / acetonitrile, 0.1% formic acid
Could you give me the number in s? Just the number is fine.

Below are worked cases with known answers.
Molecule	RP-LC retention time / s
COc1cccc(-c2noc(CN3C(=O)COc4cc(Cl)ccc43)n2)c1OC	1020
Cc1csc(-c2cc(S(=O)(=O)NC3CCCC3)c(C)n2C)n1	970
Cc1ccc2oc(-c3noc(C(=O)NC(C)Cc4ccco4)n3)c(C)c2c1 (stereo unspecified)	1180
O=c1c2nc(-c3ccc(Br)cc3)cn2ccn1-c1cccc(F)c1	898
COc1ccc(N2CCN(C(=O)c3cc4c(s3)CN(C3CCCC3)C4)CC2)cc1	623

Lab note: `Cc1cc(=O)n(CC(=O)Nc2cccc(C#N)c2)c(-c2ccc(F)cc2)n1` gave RP-LC retention time of 995

====

- Test Summary: gradient 5% acetonitrile 3 min, to 50% in 2 min, to 85% in 15 min, held 3 min, 100 µL/min
- Assay Conditions: column: Zorbax Extend-C18 2.1 x 50 mm; eluents: water / acetonitrile, 0.1% formic acid
Classification field. Basis: RP-LC retention time. Definitions: lower (below 800 s), middle (800 s to below 900 s), upper (900 s or more)

Molecule	Label
CC(C)C(=O)N1CCc2cc(-c3ccc(C(=O)N4CCN(C(=O)c5ccco5)CC4)cc3)ccc21	middle
COc1ccc(NS(=O)(=O)c2c(C)sc(C)c2-c2cc(C(F)(F)F)on2)c(OC)c1	upper
CC(C)(C)n1nnnc1C1CC2(CCOCC2)C(=O)N1CCc1c[nH]c2ccccc12 (centres undefined)	lower
Cc1ccc(NC(=O)C2CCCN(c3ncnc4c3oc3ccccc34)C2)cc1C (centres undefined)	middle

Request: Quick check: band for `O=C(c1cccs1)N1CCN(c2cc(-c3ccccc3)[nH]n2)CC1`
Response: lower

====

- Test Summary: gradient 5% acetonitrile 3 min, to 50% in 2 min, to 85% in 15 min, held 3 min, 100 µL/min
- Assay Conditions: column: Zorbax Extend-C18 2.1 x 50 mm; eluents: water / acetonitrile, 0.1% formic acid
Endpoint: RP-LC retention time (s)
Could you give me the number in s? Just the number is fine.

Below are worked cases with known answers.
CN1C(=O)CC[C@]2(C(=O)NCc3cc(F)ccc3F)CCCC[C@@H]12 575
CCCCS(=O)(=O)N1CC=C(c2cn(C)c3ncccc23)CC1 879

Pending compound:
Lab note: `O=C(Cn1nc2nc(N3CCCC3)ccn2c1=O)Nc1ccc2c(c1)OCO2` gave RP-LC retention time of 647

====

# maps each entry to its RP-LC retention time
- Test Summary: gradient 5% acetonitrile 3 min, to 50% in 2 min, to 85% in 15 min, held 3 min, 100 µL/min
- Assay Conditions: column: Zorbax Extend-C18 2.1 x 50 mm; eluents: water / acetonitrile, 0.1% formic acid
Could you give me the number in s? Just the number is fine.

Below are worked cases with known answers.
Molecule	Unit Label	RP-LC retention time
Cc1nc2cc(N3CCCC(C(=O)Nc4ccc5c(c4)OCO5)C3)cnc2nc1C (stereo not drawn)	s	695
Cc1csc(COc2ccc(C(=O)NC(C)CCc3ccccc3)cc2)n1 (stereo not drawn)	s	595
O=C(Nc1cccc(C(F)(F)F)c1)NC1CCN(c2cc(N3CCCC3)cnn2)C1 (stereo not drawn)	s	617
Cc1csc(-c2ccc(N3CCN(C(=O)c4nn(C)c5ccccc45)CC3)nc2)n1	s	864
CCc1ccc(N2CC(c3noc(-c4cc(OC)cc(OC)c4)n3)CC2=O)cc1 (stereo not drawn)	s	1100

Lab note: CCCC(=O)N1CCc2c([nH]c3ccccc23)C1c1ccc(SC)cc1 (stereo not drawn) gave RP-LC retention time of 1170

Lab note: `COc1ccccc1NC(=O)CSc1nnc2c3cc(-c4ccc(F)cc4)nn3ccn12` gave RP-LC retention time of 897

Lab note: `CCCCNc1nc(-c2ccc(OC)cc2)nc2ccccc12` gave RP-LC retention time of 807

Lab note: `CCc1cc(N2CCN(C(=O)c3ccc(F)cc3)CC2)nc2nncn12` gave RP-LC retention time of 548

Lab note: `CC(C)(C)c1cc(NC(=O)COc2ccccc2F)n(CCO)n1` gave RP-LC retention time of 759

Lab note: `Cc1nnsc1C(=O)NCc1c(F)cccc1Cl` gave RP-LC retention time of 861

Lab note: `COc1cc2c(C(=O)OCCc3ccccn3)cn(-c3ccccc3)c(=O)c2cc1OC` gave RP-LC retention time of 670

Lab note: Cc1cc(C)c(C(=O)N2CCC(CC(=O)NC(c3cccs3)C(C)C)CC2)[nH]1 (stereo not drawn) gave RP-LC retention time of 863

Lab note: `CCc1noc(-c2ccnc(-n3ncc(C(=O)N4CCOCC4)c3C)c2)n1` gave RP-LC retention time of 760

Lab note: `CCOc1ccc(Cl)cc1S(=O)(=O)N1CCC(C(=O)NCCOC)CC1` gave RP-LC retention time of 753

Lab note: `O=C(O)c1cn(Cc2cccc(F)c2)c(=O)c2ccccc12` gave RP-LC retention time of 822

Lab note: `Cc1ccccc1S(=O)(=O)N(C)CC1CCOCC1` gave RP-LC retention time of 837

====

# maps each entry to its RP-LC retention time
- Test Summary: gradient 5% acetonitrile 3 min, to 50% in 2 min, to 85% in 15 min, held 3 min, 100 µL/min
- Assay Conditions: column: Zorbax Extend-C18 2.1 x 50 mm; eluents: water / acetonitrile, 0.1% formic acid
Could you give me the number in s? Just the number is fine.

Below are worked cases with known answers.
Compound	Unit Label	Reported Result
CN(C)C(=O)c1ccc2c(c1)nc(CN(C)C(=O)Nc1ccccc1Cl)n2C	s	611
CCOC(=O)c1nnn(-c2ccccc2OC)c1C(=O)OCC	s	917
COc1ccc(OC)c(C(O)CN2CCN(c3ccccc3F)CC2)c1 (stereo not given)	s	677
CCC(C(=O)Nc1c(-c2ccc(OC)cc2)nc2cc(C)ccn12)c1ccccc1 (stereo not given)	s	713

Lab note: `Cc1ccc([C@@H]2O[C@H](CO)[C@@H](O)[C@H](O)[C@H]2O)cc1Cc1ccc(-c2ccc(F)cc2)s1` gave RP-LC retention time of 847

====

# maps each entry to its RP-LC retention time
- Test Summary: gradient 5% acetonitrile 3 min, to 50% in 2 min, to 85% in 15 min, held 3 min, 100 µL/min
- Assay Conditions: column: Zorbax Extend-C18 2.1 x 50 mm; eluents: water / acetonitrile, 0.1% formic acid
Could you give me the number in s? Just the number is fine.

Below are worked cases with known answers.
Compound	Unit Label	RP-LC retention time
CC(C)NC(=O)N1CCCC(c2cccc(C(=O)NCc3ccc(OC(C)C)cc3)c2)C1 (stereo not given)	s	939
Cc1cc(F)ccc1NC(=O)C1CCN(C(=O)C2Sc3ccccc3NC2=O)CC1 (stereo not given)	s	738
O=C(NCC1CCN(C(=O)COc2ccccc2)CC1)c1ccc(F)c(F)c1	s	758
O=C(NC1CCN(c2cc(-c3cccs3)[nH]n2)C1)c1ccc(F)cc1 (stereo not given)	s	726

Pending compound:
Lab note: Cc1ccc(-c2nc(C3CC(=O)N(c4ccc(F)cc4)C3)no2)c(C)c1 (stereo not given) gave RP-LC retention time of 1120

====

- Test Summary: gradient 5% acetonitrile 3 min, to 50% in 2 min, to 85% in 15 min, held 3 min, 100 µL/min
- Assay Conditions: column: Zorbax Extend-C18 2.1 x 50 mm; eluents: water / acetonitrile, 0.1% formic acid
# maps each entry to its RP-LC retention time
Could you give me the number in s? Just the number is fine.

Below are worked cases with known answers.
Compound	RP-LC retention time / s
Cc1ccc(NC(=O)N2CCC3(C2)C(=O)N(C)c2ccccc23)cc1 (stereo not given)	814
Cc1nn(-c2ccccc2)c(C)c1S(=O)(=O)N1CCC(C(=O)N2CCCCCC2)CC1	912
CCOC(=O)c1c(C)[nH]c(C)c1S(=O)(=O)N1CCC(C(=O)NCc2cccc(C)c2)CC1	668
CN(C)c1nccnc1OC1CCN(C(=O)c2ccc(Cl)cc2)C1 (stereo not given)	783

Pending compound:
Lab note: `Cc1ccc(NC(=O)Cn2c(N3CCOCC3)nc(C)cc2=O)c(C)c1` gave RP-LC retention time of 658

====

- Test Summary: gradient 5% acetonitrile 3 min, to 50% in 2 min, to 85% in 15 min, held 3 min, 100 µL/min
- Assay Conditions: column: Zorbax Extend-C18 2.1 x 50 mm; eluents: water / acetonitrile, 0.1% formic acid
Entry flag: TRUE if RP-LC retention time reaches 900 s; FALSE if it does not.

Compound	Label
Cc1oc(C2CCN(C(=O)c3ccsc3)CC2)nc1C(=O)N1CCCCC1	FALSE
Cc1nc(-n2cccc2)sc1C(=O)NCc1ccc(C(C)C)cc1	TRUE
Cc1ccsc1C(=O)N1C[C@H]2C[C@H](C1)[C@H]1CCCC(=O)N1C2	FALSE

Request: Is the recorded value of RP-LC retention time equal to or greater than 900 s for this compound? COc1ccc(N2CC(c3nc(-c4cccc(Cl)c4)no3)CC2=O)cc1 (stereo unspecified)
Response: TRUE

Request: Is the recorded value of RP-LC retention time equal to or greater than 900 s for this compound? `Cc1cccc(CN2CCc3nc(C)n(CC(=O)Nc4ccc5c(c4)OCO5)c(=O)c3C2)c1`
Response: FALSE

Request: Is the recorded value of RP-LC retention time equal to or greater than 900 s for this compound? `CC1(C)NC(=O)N(CCC(=O)N2CCCn3nc(-c4ccc(F)cc4)cc3C2)C1=O`
Response: FALSE

Request: Is the recorded value of RP-LC retention time equal to or greater than 900 s for this compound? O=C(Cc1cccc(F)c1)N1CCC(n2cnnc2-c2ccccc2)C1 (stereo unspecified)
Response: FALSE

Request: Is the recorded value of RP-LC retention time equal to or greater than 900 s for this compound? `Cc1c(C(=O)O)nnn1-c1ccc2c(c1)OCO2`
Response: FALSE

Request: Is the recorded value of RP-LC retention time equal to or greater than 900 s for this compound? `Cc1noc(-c2ccnc(-n3ncc(C(=O)N4CCC(C)CC4)c3C)c2)n1`
Response: TRUE
